B1: Twister Ribozyme (parent)
chain: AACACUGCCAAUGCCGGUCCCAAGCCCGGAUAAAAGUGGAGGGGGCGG

Variants of: B1
Assay: self-cleavage, relative activity (ratio to wild type); higher = more cleavage; co-transcriptional
Decide using self-cleavage: a value greater than or equal to 0.1 is met, a smaller one is not met.

Mutation	Class assignment
C3A G48A	met
G7U G45U	not met
C14A C25A	met
C15U A35G	met
A30C A40G	met
C8U G28C	met
A22G C46U	met
C21G G24A	not met
A4C C21A	met
A2C A23U	not met
A11U G38U	met
C5G A34C	met
C9U G41A	met
A35U G39A	met
A34C G43A	met
C20G G44A	met
A4G G24A	not met
G36U G41U	not met
C19G C20G	not met
C14U U18A	met
G16U G29A	met
C3G C8U	met
C14G G38C	met
A30U G38U	met
G24U G42A	not met
C9A A30G	met
U12C G41U	met
G7U G29C	not met
C14A G28A	met
C8U G41U	met
G29U G45U	met
G38A C46U	met
C27G G38C	not met
C14G C15U	met
C14U U31C	met
A32G G48C	met
A1G G16C	met
C8U	met
A11U C20U	met
U18A G47U	met
A10C G47C	met
C19A C20U	not met
C25U A33C	met
A23C G43A	met
C9G A11C	met
C8U U31G	met
C9U G24A	not met
A30C G42U	not met
C8G G38C	met
A30G U37G	met
C15A G45C	met
U18A A22G	not met
C5A C9G	not met
C14G G41C	not met
U12G C15G	met
A11U G24C	not met
A10G G47A	met
U37G G38A	met
G13U G44C	met
U37A A40G	met
C8G G29A	met
G16U G42U	met
G13C A35G	met
C8G G29C	not met
A1G G13U	met
A2U G13A	met
C5G U18G	not met
U31A G39C	met
U6A G39A	met
A10C C46G	met
C9A A35G	met
A35U U37A	met
C5G A22U	met
U6C U37A	met
C25A G42C	met
A10C C19G	met
A2C U37A	not met
G29C G45C	met
A40G G41U	met
U18G A23G	not met
C15G G44C	not met
C3A G36U	not met
G13C A32G	met
G28C G48U	met
G24U C25U	not met
A30G G42A	met
C5G U31C	met
C26U A40G	not met
A1G C20U	met
